Listing: max response of selected molecules
Assay: qHTS RealTime-Glo MT Cell Viability Assay in HEK293 cells - 40 hour (AID 1224874); note: % is set by controls: 0 for no effect and ±100 for the full control effect; nearly all actives have a fitted effect of over 50% in size
Settings: RealTime-Glo luminescence; active compounds read low
Inconclusive results are not listed.
Provide only the numeric value, understood in %.

1) CCOC(=O)c1nc(C(Cl)(Cl)Cl)n(-c2ccc(Cl)cc2Cl)n1
-11.5
2) CCC(CN)=C(c1ccccc1)c1ccccc1
-19.1
3) CCCCN(CCCC)C(=O)N(CCCC)CCCC
-2.17
4) COC(=O)C1=C(C)NC(C)=C(C(=O)OCCc2ccc(N3CCN(C(c4ccccc4)c4ccccc4)CC3)cc2)C1c1cccc([N+](=O)[O-])c1 (stereo not given)
0.767

Proceeding to the next molecule to report its max response.
Prompt: Return value of max response for input `C[C@]12CCC(=O)C=C1CC[C@@H]1[C@@H]2[C@@H](O)C[C@@]2(C)[C@H]1CC[C@]2(O)C(=O)COC(=O)CCC(=O)O` , no commentary.
Completion: -8.8

----------
Molecular target: Peroxisome proliferator-activated receptor gamma (Homo sapiens) (UniProt P37231)
Sequence (P37231 whole entry, looked up): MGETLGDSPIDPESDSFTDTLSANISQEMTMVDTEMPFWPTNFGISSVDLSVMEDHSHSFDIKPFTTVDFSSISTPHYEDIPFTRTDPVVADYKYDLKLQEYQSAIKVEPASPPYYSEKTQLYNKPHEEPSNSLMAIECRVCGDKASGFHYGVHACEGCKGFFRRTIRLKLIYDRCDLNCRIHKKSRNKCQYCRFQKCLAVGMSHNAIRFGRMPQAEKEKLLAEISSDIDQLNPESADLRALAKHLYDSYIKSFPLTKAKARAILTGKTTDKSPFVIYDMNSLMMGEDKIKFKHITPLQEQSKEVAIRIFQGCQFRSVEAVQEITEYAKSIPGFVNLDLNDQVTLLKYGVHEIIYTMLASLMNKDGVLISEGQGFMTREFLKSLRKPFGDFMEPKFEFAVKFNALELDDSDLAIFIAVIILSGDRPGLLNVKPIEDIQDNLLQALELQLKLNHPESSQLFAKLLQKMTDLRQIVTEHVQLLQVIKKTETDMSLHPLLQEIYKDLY
Test: qHTS assay to identify small molecule antagonists of the peroxisome proliferator-activated receptor gamma (PPARg) signaling pathway (AID 743191); note: nearly all actives have a fitted effect of over 30% in size
Details: HEK293H PPARg-UAS-bla, beta-lactamase ratio, antagonist, 17 h; series mostly up to 62.6 µM
Inconclusive results are not listed. The source made the active and inactive calls. Calls follow the shape of the full dose curve.
Your response should consist of one outcome taken from 1 (yes) = active, 0 (no) = inactive

Below are worked cases with known answers.
1. CCC1OCC(COc2ccc(Oc3ccccc3)cc2)O1 (stereo not drawn)
0 (no)
2. CCCCCOc1ccccc1/C(=C\SC)n1ccnc1
1 (yes)
3. Nc1ccc2cc(S(=O)(=O)O)cc(O)c2c1N=Nc1ccccc1C(F)(F)F
0 (no)
4. CCC(Cl)C(Cl)C(Cl)CC(Cl)C(Cl)C(C)Cl (stereo not drawn)
0 (no)
5. C[C@H]1[C@H]2CC[C@H]3[C@@H]4CC=C5C[C@@H](N(C)C)CC[C@]5(C)[C@H]4CC[C@]23CN1C
0 (no)

Prompt: GET /call?item= CCC(C)(C)C1CCCCC1OC(C)=O (stereo not drawn) returns the recorded outcome of this test.
Completion: 0 (no)

Prompt: GET /call?item= CC(NN)c1ccccc1 (stereo not drawn) returns the recorded outcome of this test.
Completion: 0 (no)

Prompt: GET /call?item= `O=C1c2c(O)ccc(Nc3ccc(CCO)cc3)c2C(=O)c2c([N+](=O)[O-])ccc(O)c21` returns the recorded outcome of this test.
Completion: 1 (yes)

----------
Assay: qHTS RealTime-Glo MT Cell Viability Assay in HepG2 cells - 8 hour (AID 1224873); note: nearly all actives have a fitted effect of over 55% in size
Conditions: RealTime-Glo luminescence; series mostly up to 76.8 µM
Inconclusive results are not listed. Activity calls are given as the source filed them. The call rests on the fitted dose curve; in most records, active means well fitted cell-killing curve with a large enough effect in the repeat runs; inconclusive means weak or mixed curves; inactive means flat fitted curve, though single readings scatter.
Your response should consist of one outcome taken from yes (active), no (inactive)

Below are worked cases with known answers.
1) S=c1[nH]c2ccccc2s1
no
2) CN(C)C(=O)C1(N2CCCCC2)CCN(CC[C@@]2(c3ccc(Cl)c(Cl)c3)CN(C(=O)c3ccccc3)CCO2)CC1
yes
3) C1CCCC1
no

Prompt: GET /call?item= `CCCCc1oc2ccc(NS(C)(=O)=O)cc2c1C(=O)c1ccc(OCCCN(CCCC)CCCC)cc1` returns the recorded outcome of this test.
Completion: yes

Prompt: GET /call?item= `O=C1CCCCCN1SSN1CCCCCC1=O` returns the recorded outcome of this test.
Completion: no

Prompt: GET /call?item= `C[C@]12CCC(=O)C=C1CC[C@@H]1[C@@H]2[C@@H](O)C[C@@]2(C)[C@H]1CC[C@]2(O)C(=O)COC(=O)CCC(=O)O` returns the recorded outcome of this test.
Completion: no

Prompt: GET /call?item= `ON=C1CCCC1` returns the recorded outcome of this test.
Completion: no
